Recorded Kd values for a group of binders are listed next.
# test_system: T1, recombinant human LIGHT-214E, FLAG-tagged extracellular domain (human)
# T1 construct: Trimer; Biotinylated in some assays
# T1 chain: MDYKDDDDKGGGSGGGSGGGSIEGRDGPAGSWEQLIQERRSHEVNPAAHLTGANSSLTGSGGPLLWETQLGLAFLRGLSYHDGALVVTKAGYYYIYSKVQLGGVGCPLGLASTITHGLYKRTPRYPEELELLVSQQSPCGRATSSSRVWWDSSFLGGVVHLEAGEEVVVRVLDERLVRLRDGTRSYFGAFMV
# run_description: SPR ProteOn, mAb captured on anti-mouse IgG, LIGHT 256 nM, 25 C, apparent affinity
# Procedure: SPR analysis was carried out using the ProteOn™ XPR36 Array System (BioRad). Anti-mouse IgG (GE Healthcare BR-1008-38) was immobilised on a GLC biosensor surface using amine coupling, the surface was then blocked using 1M ethanolamine. […] Apparent affinities for the LIGHT-antibody interaction were determined using the 1:1 model inherent to the ProteOn XPR36 analysis software. The assay was run using HBS-EP (Teknova) as running buffer and carried out at 25° C.
A number alone suffices; assume pM.

Sample answers from the record:
binder	unit_symbol	Kd
29C09 (purified from hybridoma supernatant) (antibody, V domains shown, Murine constant / human variable chimeric IgG, lambda, Protein G purified from hybridoma supernatant) VH: QEQLVQSGAEVKKPGASVKVSCKASGYTFTSYDINWVRQATGQGLEWMGWMNPNSGYTGYAQKFQGRVTMTRNTSIRTVYMELSSLRSEDTAVYYCARGGETFDIWGQGTMVTVSS VL: SYELTQPPSVSVSPGQTARITCSGDALPKKYAYWYQQKSGQAPVLVIYEDSKRPSGIPERFSGSSSGTMATLTISGAQVEDEADYYCYSTDSSDNHSVFGTGTKVTVL	pM	311
14B09 (purified from hybridoma supernatant) (antibody, V domains shown, Murine constant / human variable chimeric IgG, lambda, Protein G purified from hybridoma supernatant) VH: QVQLVQSGAEVKKPGASVKVSCRASGYTFTSYLMHWVRQAPGQRLEWMGWINVGNGNTKYSQKFQGRVTITRDTSASTAYMELSGLRSEDTAVYYCARNYYNWFDPWGQGTLVTVSS VL: QSALTQPASVSGSPGQSITISCTGTSSDVGGYNYVSWYQQHPGKAPKLMIYDVSKRPSGVSNRFSGSKSGNTASLTISGLQAEDEADYYCFSYAGSSTVVFGGGTKLTVL	pM	492

With those in mind, consider the next binder.
Determine its reported Kd: 98C07 (purified from hybridoma supernatant, mouse IgG) (antibody, V domains shown, Murine C / human V chimeric IgG, kappa, purified from hybridoma supernatant) VH: QVQLVESGGGLVKPGGSLRLSCAASGFTFSDYYMSWIRQAPGKGLEWVSYISRSSFIYYSESVKGRFTISRDNAKNSLYLQMNSLRAEDTAVYYCARWELSPFDYWGQGTLVTVSS VL: DIQMTQSPSSLSASVGDRVTITCRASQGISNYLAWFQQKPGKAPKSLIYAASSLQSGVPSKFSGSGSGTDFTLTISSLQPEDFATYFCQQYNTYPFTFGPGTKVDIK
45

Origin of the recorded values: patent US20170320956A1
